Catalogue of pIC50 readings, one per entry.
test.system: Herpes Simplex Virus Ribonucleotide Reductase (HSV RR) (Human herpesvirus 2, UniProt P89462)
Sequence (P89462 whole entry): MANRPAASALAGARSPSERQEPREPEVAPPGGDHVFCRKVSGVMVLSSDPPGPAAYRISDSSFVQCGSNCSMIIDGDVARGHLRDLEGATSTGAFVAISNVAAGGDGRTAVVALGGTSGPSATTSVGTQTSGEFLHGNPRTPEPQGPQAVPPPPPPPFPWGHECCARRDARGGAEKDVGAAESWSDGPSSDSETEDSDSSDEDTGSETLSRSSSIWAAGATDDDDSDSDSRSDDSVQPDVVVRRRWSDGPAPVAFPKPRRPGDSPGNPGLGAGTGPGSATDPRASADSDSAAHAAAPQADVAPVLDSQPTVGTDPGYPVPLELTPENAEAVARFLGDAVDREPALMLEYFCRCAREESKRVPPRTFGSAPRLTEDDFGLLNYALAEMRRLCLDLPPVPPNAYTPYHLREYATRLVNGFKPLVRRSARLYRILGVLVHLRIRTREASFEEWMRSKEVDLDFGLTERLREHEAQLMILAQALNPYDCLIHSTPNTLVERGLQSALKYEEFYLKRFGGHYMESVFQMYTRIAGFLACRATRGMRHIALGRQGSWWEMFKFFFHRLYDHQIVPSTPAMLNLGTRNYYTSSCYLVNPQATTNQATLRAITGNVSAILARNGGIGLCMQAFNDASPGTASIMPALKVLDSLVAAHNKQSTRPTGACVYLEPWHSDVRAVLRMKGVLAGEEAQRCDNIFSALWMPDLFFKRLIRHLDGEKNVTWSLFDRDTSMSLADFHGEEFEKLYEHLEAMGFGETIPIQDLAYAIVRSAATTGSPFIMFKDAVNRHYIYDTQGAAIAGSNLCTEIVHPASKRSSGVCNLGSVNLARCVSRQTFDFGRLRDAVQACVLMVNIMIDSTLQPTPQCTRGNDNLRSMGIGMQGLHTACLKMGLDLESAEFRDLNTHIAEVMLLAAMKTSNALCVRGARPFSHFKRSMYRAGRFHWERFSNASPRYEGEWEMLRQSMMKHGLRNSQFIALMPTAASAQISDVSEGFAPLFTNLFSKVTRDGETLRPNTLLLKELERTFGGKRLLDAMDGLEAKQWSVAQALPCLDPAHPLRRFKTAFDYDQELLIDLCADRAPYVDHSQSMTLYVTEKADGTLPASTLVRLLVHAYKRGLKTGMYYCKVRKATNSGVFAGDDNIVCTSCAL
Where a SMILES comes first, the peptide text is derived from it. [ ]: non-standard residue; d: D form. The star is where a group is joined. Desaminotyrosyl = O=C(CCc1ccc(O)cc1)*; NMeY = CN[C@@H](Cc1ccc(O)cc1)C(=O)O; Aib = CC(C)(N)C(=O)O; Ava = NCCCCC(=O)O
Keep in mind that pIC50 stands for -log10 of concentration in molar terms.

compound="CC(C)C[C@H](NC(=O)[C@H](CC(=O)O)NC(=O)C(C)(C)NC(=O)[C@@H](NC(=O)[C@@H](NC(=O)[C@H](C)NC(=O)CNC(=O)[C@H](C)NC(=O)[C@@H](N)Cc1ccc(O)cc1)C(C)C)C(C)C)C(=O)O [Y A G A V V J D L] (H-YAGAVV[Aib]DL-OH)" value_observed=3.70
compound=CC(C)C[C@H](NC(=O)[C@H](CC(=O)O)NC(=O)[C@H](CC(N)=O)NC(=O)[C@@H](NC(=O)[C@@H](NC(=O)CCc1ccc(O)cc1)C(C)C)C(C)C)C(=O)O value_observed=4.62
compound="CC(C)C[C@H](NC(=O)[C@H](CC(=O)O)NC(=O)[C@H](CC(N)=O)NC(=O)[C@@H](NC(=O)[C@@H](NC(=O)[C@H](Cc1ccc(O)cc1)NC(=O)CCCCNC(=O)[C@@H](N)Cc1ccc(O)cc1)C(C)C)C(C)C)C(=O)O [YBY V V N D L] (H-Y[Ava]YVVNDL-OH)" value_observed=4.70
compound="COc1ccc(C[C@H](N)C(=O)N[C@H](C(=O)N[C@H](C(=O)N[C@@H](CC(N)=O)C(=O)N[C@@H](CC(=O)O)C(=O)N[C@@H](CC(C)C)C(=O)O)C(C)C)C(C)C)cc1 [MeOY V V N D L] (H-Y(Me)VVNDL-OH)" value_observed=4.70

Problem: Entry CC(C)C[C@H](NC(=O)[C@H](CC(=O)O)NC(=O)[C@H](CC(N)=O)NC(=O)[C@@H](NC(=O)[C@@H](NC(=O)[C@H](C)NC(=O)CCc1ccc(O)cc1)C(C)C)C(C)C)C(=O)O [desNH2YA V V N D L] (Desaminotyrosyl-AVVNDL-OH) has what pIC50?
Solution: 3.80

Problem: Entry CN[C@@H](Cc1ccc(O)cc1)C(=O)N[C@H](C(=O)N[C@H](C(=O)N[C@@H](CC(N)=O)C(=O)N[C@@H](CC(=O)O)C(=O)N[C@@H](CC(C)C)C(=O)O)C(C)C)C(C)C [MeNY V V N D L] (H-[NMeY]VVNDL-OH) has what pIC50?
Solution: 4.92

* * *

test.system: Herpes Simplex Virus Ribonucleotide Reductase (HSV RR) (Human herpesvirus 2)
test.summary: biochemical
pIC50: −log10 of the molar value. Where no end group is shown, it is not given here.
Mark no for pIC50 values under 4, and yes for everything at or above.

substance="KKLEEFLKVVNDL [K K L E E FLK V V N D L]" group_label=no

Problem: Please check the record YVVNDL [Y V V N D L] and state if its pIC50 is at or above 4.
Solution: yes

Problem: Please check the record FAGAVVNDL [FA G A V V N D L] and state if its pIC50 is at or above 4.
Solution: yes

Problem: Please check the record FVVNDL [F V V N D L] and state if its pIC50 is at or above 4.
Solution: yes

Problem: Please check the record HVVNDL [H V V N D L] and state if its pIC50 is at or above 4.
Solution: yes

Problem: Please check the record YAPAVVNDL [Y A PA V V N D L] and state if its pIC50 is at or above 4.
Solution: yes

Problem: Please check the record YAGYVVNDL [Y A G Y V V N D L] and state if its pIC50 is at or above 4.
Solution: yes

Problem: Please check the record AVVDDL [A V V D D L] and state if its pIC50 is at or above 4.
Solution: no

Problem: Please check the record WVVNDL [W V V N D L] and state if its pIC50 is at or above 4.
Solution: yes

Problem: Please check the record Ac-YVVNDL [AcY V V N D L] and state if its pIC50 is at or above 4.
Solution: yes

Attribution: patent US4814432A
